Data origin, for the record: PubChem BioAssay (NCI)

# Test system: MDA-MB-231 breast
# EXPERIMENT_DESCRIPTION: NCI tumour cell line growth inhibition, 48 h

# MOLECULE, GI50
data = [
    ("CC(C)[C@@H]1C=C2CC[C@H]3[C@](C)(CN)CCC[C@]3(C)[C@H]2CC1", "2120 nM"),
    ("Cc1cc(I)cc(CN(CCCN(C)C)C(C)C)c1O", "18100 nM"),
    ("CCn1c(-c2nonc2N)nc2c(C#CC(C)(C)O)nc(OC[C@@H](N)c3ccccc3)cc21", "4680 nM"),
    ("COc1ccc2nc3cc(Cl)ccc3c(NCCNCC(C)O)c2c1 (stereo not given)", "1490 nM"),
    ("CCC(=C/[C@H](C)C/C=C/C(C)=C/[C@@H](C)C(=O)[C@@H](C)[C@H](O)[C@@H](C)CC)/C=C/[C@H]1OC(=O)C=C[C@@H]1C", "< 10 nM"),
    ("N#CC(C#N)=C/C=C(\\Sc1nc2ccccc2s1)c1ccc(Cl)cc1", "5870 nM"),
    ("CCCCCCCCCCn1cc[n+](C)c1", "2730 nM"),
    ("CCN1C(=O)N(c2ccccc2)C2NC(=S)N(/N=C/C=C/c3ccccc3OC)C21 (stereo not given)", "92.1 nM"),
    ("Nc1cc(NN=C(c2ccc(O)cc2)c2ccc(O)cc2)c([N+](=O)[O-])cc1[N+](=O)[O-]", "2220 nM"),
    ("Nc1c(C(=O)Nc2cccc(C(F)(F)F)c2)sc2nc3c(cc12)CCCCC3", "4400 nM"),
]
